Sourced from ChEMBL document CHEMBL1153232

- SYSTEM_TESTED: Protein farnesyltransferase subunit beta (Homo sapiens) (UniProt P49356)
- Sequence (P49356 whole entry): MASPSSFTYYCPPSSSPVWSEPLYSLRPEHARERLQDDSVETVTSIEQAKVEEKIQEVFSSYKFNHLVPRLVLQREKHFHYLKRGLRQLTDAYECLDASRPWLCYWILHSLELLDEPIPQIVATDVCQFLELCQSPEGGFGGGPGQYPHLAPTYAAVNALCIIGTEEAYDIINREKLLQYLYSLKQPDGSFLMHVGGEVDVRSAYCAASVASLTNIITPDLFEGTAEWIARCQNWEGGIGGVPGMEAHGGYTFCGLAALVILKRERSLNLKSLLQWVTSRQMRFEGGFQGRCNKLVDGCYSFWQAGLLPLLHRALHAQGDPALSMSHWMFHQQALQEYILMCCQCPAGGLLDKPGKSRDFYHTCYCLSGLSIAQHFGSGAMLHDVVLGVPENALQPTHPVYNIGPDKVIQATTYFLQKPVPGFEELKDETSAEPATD
- ASSAY_NAME: Activity at FTase assessed as formation of farnesylated peptide after 60 mins by HPLC
Calls of active or inactive are those of the source. No cut-off for these calls is given here. Peptide text beside a SMILES is read from it. * marks the point of attachment. Dansyl = CN(C)c1cccc2c(S(=O)(=O)*)cccc12
Valid outcomes are listed here; reply with one: TRUE = active, FALSE = inactive

Exercise: Per the records of this test, what outcome belongs to CC(C)C[C@H](NC(=O)[C@@H]1CCCN1C(=O)[C@H](CC(N)=O)NC(=O)[C@H](CS)NC(=O)CNS(=O)(=O)c1cccc2c(N(C)C)cccc12)C(=O)O (Dansyl-GCNPL-OH) ?
Key: FALSE

Exercise: Identify the outcome logged in this assay for the compound shown: CC(C)C[C@H](NC(=O)[C@@H](NC(=O)[C@H](CO)NC(=O)[C@H](CS)NC(=O)CNS(=O)(=O)c1cccc2c(N(C)C)cccc12)[C@@H](C)O)C(=O)O (Dansyl-GCSTL-OH)
Key: FALSE

Exercise: Short answer needed: outcome of this test for CC[C@H](C)[C@H](NC(=O)[C@@H](NC(=O)[C@H](CS)NC(=O)CNS(=O)(=O)c1cccc2c(N(C)C)cccc12)[C@@H](C)O)C(=O)N[C@@H](CC(C)C)C(=O)O (Dansyl-GCTIL-OH) ?
Key: TRUE
